- Test system: Salmonella typhimurium
- protocol.summary: Antimicrobial activity against Salmonella enterica serovar Typhimurium CHS38 tolC::Kan with GyrA D87G mutation
- Type: functional, Salmonella enterica subsp. enterica serovar Typhimurium
property.name: MIC (µg/mL)
Report only the number, with the unit µg/mL understood.

Input "CO[C@@]1(NC(=O)Cc2cccs2)C(=O)N2C(C(=O)O)=C(COC(N)=O)CS[C@@H]21" . Output MIC: 0.5

MIC reading for "O=C(N[C@H](CO)[C@H](O)c1ccc([N+](=O)[O-])cc1)C(Cl)Cl" : 4

response.value for "CC(=O)OCC1=C(C(=O)O)N2C(=O)[C@@H](NC(=O)Cc3cccs3)[C@H]2SC1" (field: MIC) = 8

Value of MIC reported for the compound "CCn1cc(C(=O)O)c(=O)c2ccc(C)nc21" is 0.5

* * *

- Test system: Salmonella typhimurium
- protocol.summary: Antimicrobial activity against Salmonella enterica serovar Typhimurium CHS14 with GyrA D87G mutation
- Type: functional, Salmonella enterica subsp. enterica serovar Typhimurium
Task for the reader: assign each of the following compounds its reported MIC.
Value expressed in µg/mL; do not type the unit.

MIC reading for "CC(=O)OCC1=C(C(=O)O)N2C(=O)[C@@H](NC(=O)Cc3cccs3)[C@H]2SC1" : 4

In plain terms, "CO[C@@]1(NC(=O)Cc2cccs2)C(=O)N2C(C(=O)O)=C(COC(N)=O)CS[C@@H]21" has a documented MIC of 4

Form field MIC, entry "CN1C[C@@H]2C[C@H]1CN2c1cc2c(cc1F)c(=O)c(C(=O)O)cn2C1CC1" : 0.25

MIC measured on "O=C(O)c1cn(C2CC2)c2cc(N3CCNCC3)c(F)cc2c1=O" = 0.12

Value of measured MIC for the entry "C[C@H]1COc2c(N3CCN(C)CC3)c(F)cc3c(=O)c(C(=O)O)cn1c23.C[C@H]1COc2c(N3CCN(C)CC3)c(F)cc3c(=O)c(C(=O)O)cn1c23.O" : 0.25

Kindly note the recorded MIC for "CCn1cc(C(=O)O)c(=O)c2ccc(C)nc21" , which is 128

What the record says about "CO/N=C(\C(=O)N[C@@H]1C(=O)N2C(C(=O)O)=C(CSC(=O)c3ccco3)CS[C@H]12)c1csc(N)n1" : MIC is 1

The measured MIC associated with "O=C(O)c1cn(-c2ccc(F)cc2)c2cc(N3CCNCC3)c(F)cc2c1=O" reads 0.25

# MIC (compound: "O=C(N[C@H](CO)[C@H](O)c1ccc([N+](=O)[O-])cc1)C(Cl)Cl" ) is 8

So, "CCn1cc(C(=O)O)c(=O)c2cc(F)c(N3CCNCC3)nc21" ? Its MIC was 1

* * *

Please respond with reported MIC for every item in the list.
- System: Salmonella typhimurium
- protocol.summary: Antimicrobial activity against Salmonella enterica serovar Typhimurium S21-3 with GyrA S83F, ParC S80I mutation
- Format: functional, Salmonella enterica subsp. enterica serovar Typhimurium

Consider "C[C@H]1COc2c(N3CCN(C)CC3)c(F)cc3c(=O)c(C(=O)O)cn1c23.C[C@H]1COc2c(N3CCN(C)CC3)c(F)cc3c(=O)c(C(=O)O)cn1c23.O" . Its measured MIC is > 16 µg/mL

Field MIC (entry "CN(C)[C@@H]1C(O)=C(C(N)=O)C(=O)[C@@]2(O)C(O)=C3C(=O)c4c(O)cccc4[C@@](C)(O)[C@H]3C[C@@H]12" ) reads > 32 µg/mL

// MIC value for "CO[C@@]1(NC(=O)Cc2cccs2)C(=O)N2C(C(=O)O)=C(COC(N)=O)CS[C@@H]21" : > 16 µg/mL

Looking up "C[C@@H]1CN(c2c(F)c(F)c3c(=O)c(C(=O)O)cn(C4CC4)c3c2F)C[C@H](C)N1" , I see its MIC listed as 16 µg/mL

The compound listed as "CN1CCN(c2cc3c(cc2F)c(=O)c(C(=O)O)cn3-c2ccc(F)cc2)CC1" has a reported MIC of > 16 µg/mL

Measured MIC of "CCn1cc(C(=O)O)c(=O)c2cc(F)c(N3CCNCC3)nc21" : > 16 µg/mL

Lookup result for "CN1C[C@@H]2C[C@H]1CN2c1cc2c(cc1F)c(=O)c(C(=O)O)cn2C1CC1" ; measured MIC: > 16 µg/mL

Form: compound = "O=C(O)c1cn(C2CC2)c2cc(N3CCNCC3)c(F)cc2c1=O" ; MIC = 32 µg/mL

"O=C(O)c1cn(-c2ccc(F)cc2)c2cc(N3CCNCC3)c(F)cc2c1=O" has a reported MIC of > 16 µg/mL

Entry COc1c(N2CCNC(C)C2)c(F)cc2c(=O)c(C(=O)O)cn(C3CC3)c12 (stereo not drawn) ; MIC = 8 µg/mL

MIC in this record for "CCn1cc(C(=O)O)c(=O)c2ccc(C)nc21" : > 256 µg/mL

# MIC (compound: "CO/N=C(\C(=O)N[C@@H]1C(=O)N2C(C(=O)O)=C(CSC(=O)c3ccco3)CS[C@H]12)c1csc(N)n1" ) is 4 µg/mL

The compound listed as "CC(=O)OCC1=C(C(=O)O)N2C(=O)[C@@H](NC(=O)Cc3cccs3)[C@H]2SC1" shows MIC equal to > 32 µg/mL

* * *

I'd be grateful if you could share measured MIC for these entries.
- Test system: Salmonella typhimurium
- protocol.summary: Antimicrobial activity against Salmonella enterica serovar Typhimurium S21
- Type: functional, Salmonella enterica subsp. enterica serovar Typhimurium
Just the number in µg/mL, nothing appended.

// field: MIC; key: O=C(N[C@H](CO)[C@H](O)c1ccc([N+](=O)[O-])cc1)C(Cl)Cl [CHLORAMPHENICOL] ; value = 8

Value of MIC reported for the compound COc1c(N2CCNC(C)C2)c(F)cc2c(=O)c(C(=O)O)cn(C3CC3)c12 (stereo not given) [GATIFLOXACIN] is 0.03

* * *

- System: Salmonella typhimurium
- protocol.summary: Antimicrobial activity against Salmonella enterica serovar Typhimurium S21
- Assay type: functional, Salmonella enterica subsp. enterica serovar Typhimurium
property.name: MIC (µg/mL)
Form entry: value (µg/mL) — number only.

Data point: "CCn1cc(C(=O)O)c(=O)c2ccc(C)nc21" ; MIC = 4

The reported MIC of the molecule "CCn1cc(C(=O)O)c(=O)c2cc(F)c(N3CCNCC3)nc21" was 0.06

// "CO/N=C(\C(=O)N[C@@H]1C(=O)N2C(C(=O)O)=C(CSC(=O)c3ccco3)CS[C@H]12)c1csc(N)n1" : MIC value = 0.5

* * *

Would you mind telling me the reported MIC of each entry?
- System: Salmonella typhimurium
- protocol.summary: Antimicrobial activity against Salmonella enterica serovar Typhimurium CHS14 with GyrA D87G mutation
- Type: functional, Salmonella enterica subsp. enterica serovar Typhimurium
Unit µg/mL implied. Number only.

Entry "CN1CCN(c2cc3c(cc2F)c(=O)c(C(=O)O)cn3-c2ccc(F)cc2)CC1" , Salmonella typhimurium data, MIC value: 1

The measured MIC that "C[C@@H]1CN(c2c(F)c(F)c3c(=O)c(C(=O)O)cn(C4CC4)c3c2F)C[C@H](C)N1" showed for Salmonella typhimurium is 1

Observed MIC, Salmonella typhimurium, COc1c(N2CCNC(C)C2)c(F)cc2c(=O)c(C(=O)O)cn(C3CC3)c12 (centres undefined) : 0.25

* * *

- Test system: Salmonella typhimurium
- protocol.summary: Antimicrobial activity against Salmonella enterica serovar Typhimurium S21 gyrA+
- Type: functional, Salmonella enterica subsp. enterica serovar Typhimurium
Please use y for MIC under 0.1 µg/mL and n for everything else, ties included.

A record lists CCn1cc(C(=O)O)c(=O)c2cc(F)c(N3CCNCC3)nc21 [ENOXACIN] . Is its MIC below 0.1 µg/mL? y

is_below(MIC, 0.1 µg/mL) for O=C(N[C@H](CO)[C@H](O)c1ccc([N+](=O)[O-])cc1)C(Cl)Cl [CHLORAMPHENICOL] ? n

Bench note: check whether COc1c(N2CCNC(C)C2)c(F)cc2c(=O)c(C(=O)O)cn(C3CC3)c12 (stereo unspecified) [GATIFLOXACIN] shows MIC below 0.1 µg/mL y

Problem: For the compound CN1C[C@@H]2C[C@H]1CN2c1cc2c(cc1F)c(=O)c(C(=O)O)cn2C1CC1 [DANOFLOXACIN] , is MIC under 0.1 µg/mL? y

A record lists C[C@H]1COc2c(N3CCN(C)CC3)c(F)cc3c(=O)c(C(=O)O)cn1c23.C[C@H]1COc2c(N3CCN(C)CC3)c(F)cc3c(=O)c(C(=O)O)cn1c23.O [LEVOFLOXACIN] . Is its MIC below 0.1 µg/mL? y

Is 0.1 µg/mL strictly greater than the compound's reported MIC? compound: CO[C@@]1(NC(=O)Cc2cccs2)C(=O)N2C(C(=O)O)=C(COC(N)=O)CS[C@@H]21 [CEFOXITIN] n

Is 0.1 µg/mL strictly greater than the compound's reported MIC? compound: O=C(O)c1cn(-c2ccc(F)cc2)c2cc(N3CCNCC3)c(F)cc2c1=O [SARAFLOXACIN] y

hey, is MIC for O=C(O)c1cn(C2CC2)c2cc(N3CCNCC3)c(F)cc2c1=O [CIPROFLOXACIN] lower than 0.1 µg/mL or not? y

Lab note: MIC threshold 0.1 µg/mL. Does this compound come in strictly under it? CO/N=C(\C(=O)N[C@@H]1C(=O)N2C(C(=O)O)=C(CSC(=O)c3ccco3)CS[C@H]12)c1csc(N)n1 [CEFTIOFUR] n

Item CN1CCN(c2cc3c(cc2F)c(=O)c(C(=O)O)cn3-c2ccc(F)cc2)CC1 [DIFLOXACIN] : MIC beneath 0.1 µg/mL, strictly? n

Answer whether the compound C[C@@H]1CN(c2c(F)c(F)c3c(=O)c(C(=O)O)cn(C4CC4)c3c2F)C[C@H](C)N1 [ORBIFLOXACIN] has MIC strictly less than 0.1 µg/mL n

For this compound, is MIC lower than 0.1 µg/mL? CCn1cc(C(=O)O)c(=O)c2ccc(C)nc21 [NALIDIXIC ACID] n

Criterion: MIC strictly below 0.1 µg/mL. Is it met by CC1(C)S[C@@H]2[C@H](NC(=O)[C@H](N)c3ccccc3)C(=O)N2[C@H]1C(=O)O [AMPICILLIN] ? n
